Values were extracted from paper PMC9913351.

We begin with a simple list: items and their reported RP.
target: bovine serum albumin BSA (Bos taurus)
Construct: purchased Sigma Aldrich
Sequence (P02769 25-607): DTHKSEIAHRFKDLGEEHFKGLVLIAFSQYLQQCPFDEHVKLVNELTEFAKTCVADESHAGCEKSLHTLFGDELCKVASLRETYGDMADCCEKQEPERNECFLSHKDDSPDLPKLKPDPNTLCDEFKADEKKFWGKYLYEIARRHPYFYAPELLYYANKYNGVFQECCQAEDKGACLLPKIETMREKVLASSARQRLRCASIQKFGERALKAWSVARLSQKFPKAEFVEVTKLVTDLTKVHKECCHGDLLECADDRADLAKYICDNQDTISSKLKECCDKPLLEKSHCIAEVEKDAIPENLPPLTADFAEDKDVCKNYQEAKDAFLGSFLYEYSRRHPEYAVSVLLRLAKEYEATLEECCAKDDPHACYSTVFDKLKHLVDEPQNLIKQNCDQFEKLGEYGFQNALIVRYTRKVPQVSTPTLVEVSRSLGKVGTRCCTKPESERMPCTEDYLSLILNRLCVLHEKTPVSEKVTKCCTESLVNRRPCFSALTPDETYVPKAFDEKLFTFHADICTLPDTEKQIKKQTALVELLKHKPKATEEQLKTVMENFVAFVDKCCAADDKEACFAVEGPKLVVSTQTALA
protocol: RP TLC on silanized RP-2 plates impregnated with bovine serum albumin
Assay type: in vitro ADME
condition summary: Rf value from RP plate impregnated with 2 mg/mL BSA solution; mobile phase pH 7.4
Please give only the number in your answer, with no unit.

{"item smiles": "CC(C)(C)NC[C@H](O)COc1nsnc1N1CCOCC1", "RP": 0.97}
{"item smiles": "Nc1ccc(O)c(C(=O)O)c1", "RP": 0.97}
{"item smiles": "CO[C@H]1/C=C/O[C@@]2(C)Oc3c(C)c(O)c4c(O)c(c(/C=N/N5CCN(C)CC5)c(O)c4c3C2=O)NC(=O)/C(C)=C\\C=C\\[C@H](C)[C@H](O)[C@@H](C)[C@@H](O)[C@@H](C)[C@H](OC(C)=O)[C@@H]1C", "RP": 0.94}
{"item smiles": "CN(C)CCC=C1c2ccccc2CCc2ccccc21", "RP": 0.63}

// field: RP; key: CC[C@@H](CO)NCCN[C@@H](CC)CO ; value = 0.95

----------
protocol: HPLC on immobilized artificial membrane column (HPLC-IAM)
Assay type: physicochemical
condition summary: logarithm of retention factor, mobile phase pH 7.4
Below, each entry is listed with its recorded log kIAM.
Would you mind answering with just the numeric figure?

Worked set:
{"molecule": "CC[C@@H](CO)NCCN[C@@H](CC)CO", "log kIAM": 0.34}
{"molecule": "NCC1(CC(=O)O)CCCCC1", "log kIAM": 0.23}
{"molecule": "C=C[C@H]1C[N@@]2CC[C@H]1C[C@H]2[C@H](O)c1ccnc2ccc(OC)cc12", "log kIAM": 0.49}

We now examine a further molecule.
The recorded log kIAM for entry CCN(CC)CCCC(C)Nc1ccnc2cc(Cl)ccc12 (centres unmarked) equals 0.49

----------
target: human serum albumin HSA (Homo sapiens, UniProt P02768)
Construct: 4 × 10 mm
Sequence (P02768 25-609): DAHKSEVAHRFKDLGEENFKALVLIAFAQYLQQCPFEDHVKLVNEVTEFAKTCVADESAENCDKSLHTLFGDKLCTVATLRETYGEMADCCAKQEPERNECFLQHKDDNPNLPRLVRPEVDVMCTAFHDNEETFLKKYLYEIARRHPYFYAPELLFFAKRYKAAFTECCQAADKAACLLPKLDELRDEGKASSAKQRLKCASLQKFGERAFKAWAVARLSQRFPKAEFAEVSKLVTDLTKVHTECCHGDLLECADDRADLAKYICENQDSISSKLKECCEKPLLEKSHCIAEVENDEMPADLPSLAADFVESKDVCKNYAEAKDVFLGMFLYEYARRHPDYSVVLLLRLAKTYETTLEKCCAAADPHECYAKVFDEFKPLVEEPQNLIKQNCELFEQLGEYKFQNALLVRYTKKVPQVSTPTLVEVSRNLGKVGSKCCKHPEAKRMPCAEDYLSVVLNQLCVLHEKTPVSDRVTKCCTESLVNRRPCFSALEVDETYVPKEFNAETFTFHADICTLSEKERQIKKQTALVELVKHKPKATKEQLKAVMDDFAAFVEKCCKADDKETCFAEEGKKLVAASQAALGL
protocol: HPLC on immobilized human serum albumin column (HPLC-HSA)
Type: in vitro ADME
condition summary: retention factor, acetate buffer pH 7.4/acetonitrile/methanol 85:10:5
Catalogue of kHSA values
In your answer, state the number alone without any accompanying words.

// worked examples, kHSA included
{"compound": "CC(C)C[C@H](CN)CC(=O)O", "target": "human serum albumin HSA (Homo sapiens, UniProt P02768)", "readout value": 0.14}
{"compound": "NCC1(CC(=O)O)CCCCC1", "target": "human serum albumin HSA (Homo sapiens, UniProt P02768)", "readout value": 0.15}
{"compound": "CO[C@H]1/C=C/O[C@@]2(C)Oc3c(C)c(O)c4c(O)c(c(/C=N/N5CCN(C)CC5)c(O)c4c3C2=O)NC(=O)/C(C)=C\\C=C\\[C@H](C)[C@H](O)[C@@H](C)[C@@H](O)[C@@H](C)[C@H](OC(C)=O)[C@@H]1C", "target": "human serum albumin HSA (Homo sapiens, UniProt P02768)", "readout value": 0.03}
{"compound": "CC(N)C12CC3CC(CC(C3)C1)C2 (centres unmarked)", "target": "human serum albumin HSA (Homo sapiens, UniProt P02768)", "readout value": 0.16}

As a next step, examine the compound that follows.
// sample CC[C@@H](C(N)=O)N1CCCC1=O , its kHSA was 0.07
